Where do these numbers come from? They come from paper PMC10279527.

TARGET_UNDER_TEST: OEP21ΔL5 (Pisum sativum, UniProt Q9SM57, DEL70-80)
Construct: made in house; host or cells: Escherichia coli BL21(DE3) (described for OEP21)
ASSAY_PROCEDURE: FP competition with preformed MANT-ATP/OEP21ΔL5 complex
Type: binding, garden pea
CONDITION_CONTEXT: dL5; read-out: mean IC50
READOUT_NAME: pIC50
Recall that pIC50 is obtained by taking minus log10 of the concentration measured in molar.

What pIC50 value was documented for this compound, O=C[C@H](O)COP(=O)(O)O [GAP, D-glyceraldehyde-3-phosphate] ?
1.59

====

ASSAY_PROCEDURE: ITC of ATP, GAP or phosphate with magnesium
Type: binding
CONDITION_CONTEXT: 10 mM HEPES pH7.0, 20 mM NaCl, listed as Pi, read-out: KD for Mg^2+
READOUT_NAME: pKd
Recall that pKd is obtained by taking minus log10 of the concentration measured in molar.

What pKd value was documented for this molecule, O=P(O)(O)O [Phosphate] ?
2.05

====

ASSAY_PROCEDURE: ITC of ATP, GAP or phosphate with magnesium
Type: binding
CONDITION_CONTEXT: 10 mM HEPES pH7.0, 20 mM NaCl, read-out: KD for Mg^2+
READOUT_NAME: Kd

What Kd value was documented for this compound, O=P(O)(O)O [Phosphate] ?
~9 mM

====

I'd appreciate it if you could supply fold increase in Kd values for the items below.
TARGET_UNDER_TEST: OEP21 (Pisum sativum)
ASSAY_PROCEDURE: Isothermal titration calorimetry (ITC) of OEP21 with metabolites
Type: binding, garden pea
Set-up: made in house
CONDITION_CONTEXT: individual determination KD1; relative to ATP pH7
Answer using only a numeral; do not append any unit.

What fold increase in Kd value was documented for this compound, O=c1ccn([C@@H]2O[C@H](COP(=O)(O)OP(=O)(O)OP(=O)(O)O)[C@@H](O)[C@H]2O)c(=O)[nH]1 [UTP] ?
2.55

What fold increase in Kd value was documented for this compound, Nc1ncnc2c1ncn2[C@@H]1O[C@H](COP(=O)(O)OP(=O)(O)O)[C@@H](O)[C@H]1O [ADP] ?
10.8

What fold increase in Kd value was documented for this compound, Nc1ccn([C@@H]2O[C@H](COP(=O)(O)OP(=O)(O)OP(=O)(O)O)[C@@H](O)[C@H]2O)c(=O)n1 [CTP] ?
1.35

What fold increase in Kd value was documented for this compound, Nc1nc2c(ncn2[C@@H]2O[C@H](COP(=O)(O)OP(=O)(O)OP(=O)(O)O)[C@@H](O)[C@H]2O)c(=O)[nH]1 [GTP] ?
0.59

====

TARGET_UNDER_TEST: OEP21 wt (Pisum sativum, UniProt Q9SM57)
Construct: made in house
ASSAY_PROCEDURE: NMR titrations (2D-[15N,1H]-TROSY) of OEP21 with metabolites
Type: binding, garden pea
CONDITION_CONTEXT: KD GAP - Loop5, Mean, Loop5; mean
READOUT_NAME: Kd

API: value(readout=Kd, system=OEP21 wt (Pisum sativum, UniProt Q9SM57)) for record O=C[C@H](O)COP(=O)(O)O [GAP, D-glyceraldehyde-3-phosphate]
3.18 mM
